System: Ehrlich
Experiment: Cytotoxicity against Ehrlich ascites carcinoma cells at 125 ug/ml
Assay type: functional, Mus musculus
property.label: Activity (%)
Numeric only. Scale: %

Could you share which Activity value was measured for O=Cc1c(N2CCCCC2)oc2cc(N3CCCCC3)c(F)cc2c1=O ? 100

Reported Activity, molecule O=Cc1c(N2CCOCC2)oc2ccc(Cl)cc2c1=O : ____ 60

I'd like to know its Activity. The molecule in question is CN1CCN(c2oc3ccc(Cl)cc3c(=O)c2C=O)CC1 50

Query (molecule): O=Cc1c(N2CCCCC2)oc2ccc(Cl)cc2c1=O ; field requested: Activity 100

State the recorded Activity for this entry: O=Cc1c(N2CCOCC2)oc2cc(N3CCOCC3)c(F)cc2c1=O 0

Recorded Activity of CN1CCN(c2cc3oc(N4CCN(C)CC4)c(C=O)c(=O)c3cc2F)CC1 , please. 0

Any idea what its Activity is? The molecule is O=Cc1c(N2CCCC2)oc2ccc(Cl)cc2c1=O 90

====

System: Ehrlich
Experiment: Cytotoxicity against Ehrlich ascites carcinoma cells at 500 ug/ml
Assay type: functional, Mus musculus
property.label: Activity (%)
Respond numerically; units are % and should not be typed.

Consider the compound shown here: CN1CCN(c2oc3ccc(Cl)cc3c(=O)c2C=O)CC1 What is its recorded Activity? 60

Item under review: CN1CCN(c2cc3oc(N4CCN(C)CC4)c(C=O)c(=O)c3cc2F)CC1 . Reported Activity? 20

Which value of Activity has been reported for O=Cc1c(N2CCCCC2)oc2cc(N3CCCCC3)c(F)cc2c1=O in the records? 100

Using the record for O=Cc1c(N2CCOCC2)oc2cc(N3CCOCC3)c(F)cc2c1=O , report its Activity. 70

Which value of Activity has been reported for O=Cc1c(N2CCCC2)oc2ccc(Cl)cc2c1=O in the records? 100

Requested read-out: Activity. Entry: O=Cc1c(N2CCCCC2)oc2ccc(Cl)cc2c1=O 100

// Activity lookup, key: O=Cc1c(N2CCOCC2)oc2ccc(Cl)cc2c1=O 100
